This collection of values is drawn from PubChem BioAssay (Tox21).

target: Vitamin D3 receptor (Homo sapiens); assay: qHTS assay to identify small molecule antagonists of the vitamin D receptor (VDR) signaling pathway (AID 743223); settings: VDR-UAS-bla HEK293T, beta-lactamase FRET ratio, 16 h; series mostly up to 61 µM
Records with an inconclusive call do not appear. The source made the active and inactive calls. Calls follow the shape of the dose curve; as a rule, active = well fitted inhibition curve with a large enough effect in the signal ratio in the repeat runs (not every such curve was filed as active); inconclusive = weak or mixed curves, or effect the other way; inactive = no such curve, though single readings can be large or run the other way; the % refers to the signal ratio.
Pick from True (active), False (inactive) when you respond.

Please indicate how the test categorized CO[Si](OC)(OC)c1ccccc1 .
False

Then this compound: NC(N)=Nc1nc(CSCC/C(N)=N/S(N)(=O)=O)cs1
False

Then this compound: CCN(CC)CCOc1ccc(/C(=C(\Cl)c2ccccc2)c2ccccc2)cc1
True

Then this compound: Cc1cccc(O)c1C
False

Then this compound: CC(C)CCOCc1ccccc1
False

Then this compound: CC(C)(C)NC(=O)[C@@H]1CN(Cc2cccnc2)CCN1C[C@@H](O)C[C@@H](Cc1ccccc1)C(=O)N[C@H]1c2ccccc2C[C@H]1O
False

Then this compound: CC(C)(O)CCC(C)(C)O
False

Then this compound: OCCN1CCNCC1
False

Then this compound: c1cnc2cc3c(cc2n1)C1CNCC3C1
False

Then this compound: Nc1cc(Cl)c(-c2cc(Cl)c(N)cc2Cl)cc1Cl
True

Then this compound: Nc1cc(S(=O)(=O)O)cc2cc(S(=O)(=O)O)cc(O)c12
False

Then this compound: CCC[C@H](N[C@@H](C)C(=O)N1[C@H](C(=O)O)C[C@@H]2CCCC[C@@H]21)C(=O)OCC
False
